Data provenance is the Human Domainome abundance scans (Beltran et al. 2025).

B1: Peroxisome proliferator-activated receptor delta, residues 71 to 145; numbered along this chain, Q03181 (parent)
chain: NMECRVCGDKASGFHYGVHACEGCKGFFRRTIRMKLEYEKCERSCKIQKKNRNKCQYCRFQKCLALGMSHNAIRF

Variants of: B1
Experiment: abundance fitness (aPCA) (normalised: wild type 0, dead -1); higher = more abundant; growth selection in yeast, the domain comes from the species named
Settings: Homo sapiens
endpoint.name: abundance fitness
Numbers only.

In the examples that follow, each entry is paired with its recorded abundance fitness.
[[record]]
variant_description = "A11Y"
endpoint_name = "abundance fitness"
measured_value = -0.31

[[record]]
variant_description = "Y16Q"
endpoint_name = "abundance fitness"
measured_value = -0.034

[[record]]
variant_description = "G26I"
endpoint_name = "abundance fitness"
measured_value = 0.025

[[record]]
variant_description = "Q56E"
endpoint_name = "abundance fitness"
measured_value = 0.077

[[record]]
variant_description = "T31I"
endpoint_name = "abundance fitness"
measured_value = -0.49

[[record]]
variant_description = "K50A"
endpoint_name = "abundance fitness"
measured_value = 0.06

[[record]]
variant_description = "C41A"
endpoint_name = "abundance fitness"
measured_value = -1

[[record]]
variant_description = "L36S"
endpoint_name = "abundance fitness"
measured_value = -0.235


Consider the following items and state reported abundance fitness for each.
1. G67A
2. G67S
3. V6T

[reply]
1. -0.411
2. -0.694
3. -1.18
